assay: soluble on expression in E. coli; label from the status in PepcDB or PDB records
RECORDED_ENDPOINT: soluble on expression in E. coli

| SEQUENCE_TEXT | ASSAY_VALUE |
| --- | --- |
| MGSDKIHHHHHHMSDKTDSSQGKSEPESSENNNDKTSVDNSVKSPLTIAISKNTKILALFAIACTLAVSLVSELTKDRIKVQEQQQLLRTLHSIIEPSRYDNDIANDCIMMSAPELGSNKVKTAYIARKAGQVVAVAITSTAPQGYNGNIDFIMAINNDGSVSGVRVLKHQETPGLGDKIEIRKSDWIKSFTGKRILSEDDSRWAVTKDNGMFDQFTGATITPRAVVKGVKSTLNYFNQHKGSLIPRPNACGEALSTTKSISPISEAANEQ | not soluble |
| MTDRGIVFNIQHFSIHDGPGIRTTVFLKGCPLRCPWCANPESQQKAPEQMLTSDGLNTKIVGEEKTVDEVIEEVLKDLDFYEESGGGMTLSGGEIFAQFDFALALLKAAKAAGLHTAIETTAFAKHEQFVTLVDYVDFIYTDLKHYNQLRHQKVTGVRNDLIIKNIHYAFQAGKEIVLRIPVIPQFNDSLDDAKAFSELFNQLEIDQVQLLPFHQFGENKYKLLGREYEMAEVKAYHPEDLADYQAVFLNHNIHCYF | not soluble |
| MGSDKIHHHHHHLSCCGQIGKITVGNGIWGILEEGMQSKAGTADQGWALEEKLDEFNRHQHPFNGSGADESFAYVIKKGDQVVGGVAASSDDNAIGYIELLWVDETMRRQGLGRALLATVEQALQAAGCKRVRLETFDYQAPAFYLENGYHEFGKLNYDYAGVIEYFFVKMLSLPIGYNIPPAFSIEAAEDLAMEAIENKLHAYNVKMKPLLQQKMGVTFTFLAEENGQCIGGIFGYSTMYKIGYIESLWVAETNRHAGVGTALVDVLVNALKDFGCPIVHLDTMSYQGAAFYKALGFEQFGQLTYPEIDAAEVFFVKHLVSVGERTINANK | not soluble |

----------
assay: soluble on expression in E. coli; label from the status in PepcDB or PDB records
RECORDED_ENDPOINT: soluble on expression in E. coli

| SEQUENCE_TEXT | ASSAY_VALUE |
| --- | --- |
| MGSDKIHHHHHHMTPPPDELLAVRQAVEWAITTRRSVRAFLPKPVTADTVEAILNTARFAATGVNIQPWKVHVLMGAAKDRVCAAIKQIDDDPAVAVMHADEWAYYPKEWTSPYVDRRRAVGWRLYSLLGIEKGDKARMQVQHGRNYQFFGAPVGLFFTVDRLMSEGSLLDYGMFLQNIMVVARTYGLSTCPQAAFMKYHRIIEQELGLGAHEKFVVGMSLGYADEERIENTLASEREPAASFTTFHEK | not soluble |
| PLESCVRLHSSSGTTGNPTVMLYTQNDLDNWSKLMARCMSLSGANRHDIFQNIMGYGLFTGGIGFHYGAERLGMLTIPIGPGNSKRQGWFMKHLGVSVVHILPSYAFRLYSHLKEEGVDPKELPLRIAFIGAEPHSEAMRREIERLYGIKAFNSFGLSEMNGPGVAFECQEQSGMHLW | not soluble |

----------
experiment: soluble on expression in E. coli; label from the status in PepcDB or PDB records
RECORDED_ENDPOINT: soluble on expression in E. coli

| SEQUENCE_TEXT | ASSAY_VALUE |
| --- | --- |
| AHHHHHHGSYVIIMGAGRIGTLVAKMLENSGHDVAIIEMNKDRARAVSDIVSGLVIEGDATDQNILESANVRNADAFVALTGKDDANILACILAKHLNPRIMTILRITDPRKKKIFEEVKDLKKYFDVVVSPEDIAANYIFRVVITPGFDRVLLPREGAEIIQFHIDENSKVAGKAVKDLNLPRDSLIIAIYDEKGNLIIPSGETILPKRGTVVVFAKDSALKEIKKIMEEKVEESEE | soluble |
| MSLKDINIGVVLPLTGTVAAYGQDVFNGIELANKLQPKLSNGDVIKLITIDTKGDKLETSNGVNRLIATDKVLGIIGEATTPNTIQAISIAEEKKIPLIAPVASGDKLLDKKKYASRVCFKDSFQGDKFATYVSKDLGLKNAVIIIDQSNVYSLGLARAFENSFKNNGGKIIKKLVINSGDKDFRAVVSQLKSLNPDFVYMPIYHPEAALIARQARQIGFDKLLVAGDGVNNQTFIDLGGSAVNGVIFTDSFDYNSPSTQLGKDFVAAYEKVKGTKELPAFSAMGADAYFVMLNAMNACVDNLSSECINSKIHQTKDFQAVGGVISIDESGNAIRSVVIKEIQNQKQNYKTIINEGHHHHHH | soluble |

Where do these numbers come from? They come from the DeepSol protein solubility set.
